# Target under test: T1, EsCas13d, nuclease-dead (Eubacterium siraeum, UniProt B0MS50, R295A;H300A;R849A;H854A)
# T1 sequence: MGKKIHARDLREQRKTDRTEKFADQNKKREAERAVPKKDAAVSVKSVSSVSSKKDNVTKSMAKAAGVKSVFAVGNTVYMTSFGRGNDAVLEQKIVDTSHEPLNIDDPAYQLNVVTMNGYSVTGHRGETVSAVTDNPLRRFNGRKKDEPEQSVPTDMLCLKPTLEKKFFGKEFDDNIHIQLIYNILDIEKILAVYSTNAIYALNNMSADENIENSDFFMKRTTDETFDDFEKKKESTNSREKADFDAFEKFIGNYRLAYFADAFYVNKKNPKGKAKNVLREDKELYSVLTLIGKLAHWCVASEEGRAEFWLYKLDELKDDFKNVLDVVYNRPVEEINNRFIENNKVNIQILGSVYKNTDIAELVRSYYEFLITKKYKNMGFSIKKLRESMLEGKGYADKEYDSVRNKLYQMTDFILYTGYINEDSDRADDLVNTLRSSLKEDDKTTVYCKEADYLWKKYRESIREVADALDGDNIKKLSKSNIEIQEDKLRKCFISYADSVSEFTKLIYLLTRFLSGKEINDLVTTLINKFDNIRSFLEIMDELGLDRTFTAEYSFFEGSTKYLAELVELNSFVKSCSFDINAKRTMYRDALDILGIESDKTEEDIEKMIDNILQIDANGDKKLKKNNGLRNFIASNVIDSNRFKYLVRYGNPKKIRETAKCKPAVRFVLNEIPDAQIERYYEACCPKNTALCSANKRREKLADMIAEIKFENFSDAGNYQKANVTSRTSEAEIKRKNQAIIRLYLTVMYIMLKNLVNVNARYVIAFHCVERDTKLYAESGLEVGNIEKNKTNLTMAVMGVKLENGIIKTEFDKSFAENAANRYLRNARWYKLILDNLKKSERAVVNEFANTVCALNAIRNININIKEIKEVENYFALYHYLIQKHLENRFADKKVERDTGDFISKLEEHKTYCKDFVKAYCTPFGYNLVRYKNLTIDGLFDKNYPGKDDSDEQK
# Measurement description: crRNA (strand 1, pre-loaded); Mg2+; 40 mM Tris-HCl pH 7.5, 150 mM NaCl, 6 mM MgCl2, 1 mM DTT, 0.1% Tween-20, 0.2 mg/ml BSA; 25 C; 10 min per concentration, then washed
# Condition description: tags: His6-TwinStrep-SUMO cleaved; N-terminal SNAP kept (SNAP-Surface 488); label: 3' end held by stalled T7 RNA polymerase
Threshold-based label: Kd under 20 nM gives Fulfilled, Kd not under 20 nM gives Not fulfilled.

Exam item: Report whether reported Kd is lower than 20 nM (strictly) for target 1 MT 5'PFS AGG 3'PFS CGG (mixed) RNA 1: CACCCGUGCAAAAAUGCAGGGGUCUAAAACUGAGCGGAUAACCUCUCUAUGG RNA 2: GGGAAUGGAUCCACAUCUACGAAUUCAGGCCAUAGAGAGGUUAUCCGCUCACGGAGAUCGGAAGAGCACACGU
Marked response: Not fulfilled

Exam item: Ok, now target 3 insG 3' of 8,insA 3' of 6 (mixed) RNA 1: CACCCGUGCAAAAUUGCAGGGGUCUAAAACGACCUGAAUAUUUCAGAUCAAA RNA 2: GGGAAUGGAUCCACAUCUACGAAUUCGUUUUUGAUCUGAAAUAUGUCAAGGUCUGCAGAUCGGAAGAGCACACGU
Marked response: Not fulfilled

Exam item: Ok, now target 1 insG 3' of 21,insA 3' of 19 (mixed) RNA 1: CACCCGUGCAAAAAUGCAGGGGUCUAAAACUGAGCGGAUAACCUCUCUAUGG RNA 2: GGGAAUGGAUCCACAUCUACGAAUUCGUACCGAUAAGAGAGGUUAUCCGCUCACCGAGAUCGGAAGAGCACACGU
Marked response: Not fulfilled

Exam item: Ok, now target 2 MT 5'PFS GCC 3'PFS AAC (mixed) RNA 1: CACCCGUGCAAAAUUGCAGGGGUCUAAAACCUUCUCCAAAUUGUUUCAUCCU RNA 2: GGGAAUGGAUCCACAUCUACGAAUUCGCCAGGAUGAAACAAUUUGGAGAAGAACAGAUCGGAAGAGCACACGU
Marked response: Fulfilled

Exam item: Ok, now target 1 insG 3' of 21,insU 3' of 18 (mixed) RNA 1: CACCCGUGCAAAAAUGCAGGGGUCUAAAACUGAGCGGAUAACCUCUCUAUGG RNA 2: GGGAAUGGAUCCACAUCUACGAAUUCGUACCGAUAUGAGAGGUUAUCCGCUCACCGAGAUCGGAAGAGCACACGU
Marked response: Not fulfilled

Exam item: Ok, now target 1 insG 3' of 14,insG 3' of 3 (mixed) RNA 1: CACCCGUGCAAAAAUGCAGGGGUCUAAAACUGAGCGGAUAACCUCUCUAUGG RNA 2: GGGAAUGGAUCCACAUCUACGAAUUCGUACCAUAGAGAGGGUUAUCCGCUGCACCGAGAUCGGAAGAGCACACGU
Marked response: Fulfilled

Exam item: Ok, now target 2 MT 5'PFS UUA 3'PFS AAG (mixed) RNA 1: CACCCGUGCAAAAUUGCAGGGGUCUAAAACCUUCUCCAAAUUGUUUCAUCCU RNA 2: GGGAAUGGAUCCACAUCUACGAAUUCUUAAGGAUGAAACAAUUUGGAGAAGAAGAGAUCGGAAGAGCACACGU
Marked response: Fulfilled

Exam item: Ok, now target 2 MT 5'PFS UUC 3'PFS AUA (mixed) RNA 1: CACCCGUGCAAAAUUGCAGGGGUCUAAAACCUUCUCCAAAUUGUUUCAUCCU RNA 2: GGGAAUGGAUCCACAUCUACGAAUUCUUCAGGAUGAAACAAUUUGGAGAAGAUAAGAUCGGAAGAGCACACGU
Marked response: Fulfilled

Exam item: Ok, now target 3 U2G,U21A (mixed) RNA 1: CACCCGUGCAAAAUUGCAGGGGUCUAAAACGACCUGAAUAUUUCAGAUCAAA RNA 2: GGGAAUGGAUCCACAUCUACGAAUUCGUUUAUGAUCUGAAAUAUUCAGGGCUGCAGAUCGGAAGAGCACACGU
Marked response: Not fulfilled

Exam item: Ok, now target 3 U2A (mixed) RNA 1: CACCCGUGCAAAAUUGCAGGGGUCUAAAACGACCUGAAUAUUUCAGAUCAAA RNA 2: GGGAAUGGAUCCACAUCUACGAAUUCGUUUUUGAUCUGAAAUAUUCAGGACUGCAGAUCGGAAGAGCACACGU
Marked response: Not fulfilled

Exam item: Ok, now target 2 MT 5'PFS GGG 3'PFS AAC (mixed) RNA 1: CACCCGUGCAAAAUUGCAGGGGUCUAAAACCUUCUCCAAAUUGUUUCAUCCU RNA 2: GGGAAUGGAUCCACAUCUACGAAUUCGGGAGGAUGAAACAAUUUGGAGAAGAACAGAUCGGAAGAGCACACGU
Marked response: Fulfilled

Exam item: Ok, now target 3 insA 3' of 22,insG 3' of 1 (mixed) RNA 1: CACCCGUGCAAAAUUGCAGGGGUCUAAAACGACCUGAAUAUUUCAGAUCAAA RNA 2: GGGAAUGGAUCCACAUCUACGAAUUCGUUUAUUGAUCUGAAAUAUUCAGGUCGUGCAGAUCGGAAGAGCACACGU
Marked response: Not fulfilled

Exam item: Ok, now target 2 MT 5'PFS UGC 3'PFS AUA (mixed) RNA 1: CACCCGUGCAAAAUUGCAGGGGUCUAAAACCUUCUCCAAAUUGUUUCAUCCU RNA 2: GGGAAUGGAUCCACAUCUACGAAUUCUGCAGGAUGAAACAAUUUGGAGAAGAUAAGAUCGGAAGAGCACACGU
Marked response: Not fulfilled
